ASSAYED TARGET: T1, human GIP receptor (human, UniProt P48546 22-466)
T1 sequence (looked up): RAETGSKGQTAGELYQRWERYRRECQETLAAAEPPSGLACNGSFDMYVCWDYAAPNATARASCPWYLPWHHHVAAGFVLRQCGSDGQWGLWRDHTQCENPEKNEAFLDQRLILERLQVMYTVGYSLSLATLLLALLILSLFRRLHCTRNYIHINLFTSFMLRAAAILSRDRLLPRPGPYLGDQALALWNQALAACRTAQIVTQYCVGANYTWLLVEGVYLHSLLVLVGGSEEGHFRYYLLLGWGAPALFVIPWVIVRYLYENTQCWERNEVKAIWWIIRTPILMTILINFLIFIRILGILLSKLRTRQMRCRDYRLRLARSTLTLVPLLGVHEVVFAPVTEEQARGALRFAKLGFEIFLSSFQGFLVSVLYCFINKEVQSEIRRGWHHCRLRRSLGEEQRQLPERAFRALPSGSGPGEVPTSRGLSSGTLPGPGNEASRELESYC
ASSAY REMARKS: cell-based or functional assay
Catalogue of cAMP EC50 (1.0% HSA) readings, one per entry.
EXPERIMENTAL ENDPOINT: cAMP EC50 (1.0% HSA)

>>> reported_value("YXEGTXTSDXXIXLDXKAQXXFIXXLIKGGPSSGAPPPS (Y-Aib-EGT-αMeF(2F)-TSD-4Pal-Aib-I-αMeL-LD-Orn-K((2-[2-(2-Amino-ethoxy)-ethoxy]-acetyl)2-(γ-Glu)-CO-(CH2)10-CH3)AQ-Aib-4Pal-FI-(D-Glu)-αMeY-LIK((2-[2-(2-Amino-ethoxy)-ethoxy]-acetyl)2-(γ-Glu)-CO-(CH2)10-CH3)GGPSSGAPPPS-NH2) [Example 416]")
"0.723 nM"
>>> reported_value("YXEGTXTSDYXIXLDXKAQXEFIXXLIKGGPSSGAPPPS (Y-Aib-EGT-αMeF(2F)-TSDY-Aib-I-αMeL-LD-Orn-K((2-[2-(2-Amino-ethoxy)-ethoxy]-acetyl)-(γ-Glu)-(10-(4-carboxyphenoxy)decanoyl))AQ-Aib-EFI-(D-Glu)-αMeY-LIK((2-[2-(2-Amino-ethoxy)-ethoxy]-acetyl)-(γ-Glu)-(10-(4-carboxyphenoxy)decanoyl))GGPSSGAPPPS-NH2) [Example 373]")
"2.84 nM"
>>> reported_value("YXEGTXTSDKXIXLDXKAQXEXIXXLIEGGPSSGAPPPS (Y-Aib-EGT-αMeF(2F)-TSDK((2-[2-(2-Amino-ethoxy)-ethoxy]-acetyl)2-(γ-Glu)-CO-(CH2)10-CH3)-Aib-I-αMeL-LD-Orn-K((2-[2-(2-Amino-ethoxy)-ethoxy]-acetyl)2-(γ-Glu)-CO-(CH2)10-CH3)AQ-Aib-E-αMeF-I-(D-Glu)-αMeY-LIEGGPSSGAPPPS-NH2) [Example 429]")
"1.03 nM"
